target: UniProtKB P00742; test: In vitro Factor Xa inhibition, chromogenic assay; type: biochemical; conditions: 0.1 μM compound, read-out: % Factor Xa inhibition at 0.1 μM using chromogenic assay
Sequence (P00742 235-488 limits assumed): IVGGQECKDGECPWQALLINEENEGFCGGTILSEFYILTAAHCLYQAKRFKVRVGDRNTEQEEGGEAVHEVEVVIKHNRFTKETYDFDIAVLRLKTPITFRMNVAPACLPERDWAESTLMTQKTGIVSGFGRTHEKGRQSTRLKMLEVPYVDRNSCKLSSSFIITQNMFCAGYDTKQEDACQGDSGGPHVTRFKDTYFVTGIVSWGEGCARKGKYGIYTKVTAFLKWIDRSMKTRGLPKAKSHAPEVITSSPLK
Sequence (P00742 41-179 partner limits assumed): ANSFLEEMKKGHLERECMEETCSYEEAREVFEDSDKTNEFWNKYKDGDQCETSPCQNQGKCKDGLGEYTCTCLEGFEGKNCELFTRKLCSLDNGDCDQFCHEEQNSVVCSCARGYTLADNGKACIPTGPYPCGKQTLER
Value Type: inhibition at 0.1 µM (%)
State the answer as a number, implicitly in %.

Below: 8 compounds and their reported inhibition at 0.1 µM.
                                   compound  quantitative_readout
0  CS(=O)(=NC(=O)CN1CCCC1)c1ccc(C(=O)Nc2ccc(Cl)cc2C(=O)Nc2ccc(Cl)cn2)cc1 (stereo not drawn)                    64
1  CCN(CC)CC(=O)N=S(C)(=O)c1ccccc1-c1ccc(C(=O)Nc2ccc(Cl)cc2C(=O)Nc2ccc(Cl)cn2)cc1 (stereo not drawn)                    79
2  CCN(CC)CCN=S(C)(=O)c1ccc(C(=O)Nc2ccc(Cl)cc2C(=O)Nc2ccc(Cl)cn2)cc1 (stereo not drawn)                    77
3  CN(C)CC(=O)N=S(C)(=O)c1ccccc1-c1ccc(C(=O)Nc2ccc(Cl)cc2C(=O)Nc2ccc(Cl)cn2)cc1 (stereo not drawn)                    95
4  CS(=O)(=NC(=O)c1ccncc1)c1ccccc1-c1ccc(C(=O)Nc2ccc(Cl)cc2C(=O)Nc2ccc(Cl)cn2)cc1 (stereo not drawn)                    85
5  CCN1CCC(C(=O)N=S(C)(=O)c2ccccc2-c2ccc(C(=O)Nc3ccc(Cl)cc3C(=O)Nc3ccc(Cl)cn3)cc2)CC1 (stereo not drawn)                    82
6  CS(=N)(=O)c1ccc(C(=O)Nc2ccc(Cl)cc2C(=O)Nc2ccc(Cl)cn2)cc1 (stereo not drawn)                    75
7  CS(=O)(=NC(=O)CN1CCCCC1)c1ccccc1-c1ccc(C(=O)Nc2ccc(Cl)cc2C(=O)Nc2ccc(Cl)cn2)cc1 (stereo not drawn)                    79

Now turn to the next compound.
Prompt line: Quick check: inhibition at 0.1 µM of CS(=O)(=NC(=O)C1CCNCC1)c1ccccc1-c1ccc(C(=O)Nc2ccc(Cl)cc2C(=O)Nc2ccc(Cl)cn2)cc1 (stereo not drawn) ?
Response line: 69

Where do these numbers come from? They come from patent US8227492B2.
